System: erythrocyte membranes
RUN_DESCRIPTION: Hemolysis in whole blood (Kahn method)
Assay type: cell-based, human
Experimental: Hemolysis was tested with fresh citrate anticoagulated blood from healthy volunteers as well as with blood cells which were suspended in phosphate buffered saline (10 mM pH 7.4). Afterwards, 100 μL AMP solution was added to 500 μL blood to finally achieve AMP concentrations of 8, 32, and 128 μg/mL. […] The hemolysis was calculated from the extinction at the wavelengths 562, 578, and 598 nm with a Synergy 2 microplate reader (BioTek, Winooski, VT, USA) according to the method published by Kahn.
Peptide text beside a SMILES is read from it. * marks the point of attachment. Lauroyl = CCCCCCCCCCCC(=O)*; Decanoyl = CCCCCCCCCC(=O)*; Octanoyl = CCCCCCCC(=O)*

{"columns": ["MOLECULE", "TESTED_SYSTEM", "Free Hemoglobin, BLOOD, 8 μg/mL, mg/dL"],
 "data": [
  ["CCCCCCCCCCCC(=O)N1CCC[C@H]1C(=O)N[C@@H](Cc1ccccc1)C(=O)N[C@@H](Cc1c[nH]c2ccccc12)C(=O)N[C@@H](CCCNC(=N)N)C(=O)N[C@H](C(=O)N[C@@H](CCCNC(=N)N)C(=O)N[C@H](C(=O)N[C@@H](CCCNC(=N)N)C(=O)N[C@@H](CCCNC(=N)N)C(N)=O)[C@@H](C)CC)[C@@H](C)CC [LF11-322-C12] (Lauroyl-PFWRIRIRR-NH2)", "erythrocyte membranes", 2.4],
  ["CCCCCCCCCC(=O)N[C@@H](Cc1ccccc1)C(=O)N[C@@H](Cc1c[nH]c2ccccc12)C(=O)N[C@@H](CCCNC(=N)N)C(=O)N[C@@H](CCCNC(=N)N)C(=O)N[C@@H](Cc1ccccc1)C(=O)N[C@@H](Cc1c[nH]c2ccccc12)C(=O)N[C@@H](CCCNC(=N)N)C(=O)N[C@@H](CCCNC(=N)N)C(N)=O [LF11-227-C10] (Decanoyl-FWRRFWRR-NH2)", "erythrocyte membranes", 2.3],
  ["CCCCCCCC(=O)N[C@@H](Cc1ccccc1)C(=O)N[C@@H](Cc1c[nH]c2ccccc12)C(=O)N[C@@H](CCCNC(=N)N)C(=O)N[C@@H](CCCNC(=N)N)C(=O)N[C@@H](Cc1ccccc1)C(=O)N[C@@H](Cc1c[nH]c2ccccc12)C(=O)N[C@@H](CCCNC(=N)N)C(=O)N[C@@H](CCCNC(=N)N)C(N)=O [LF11-227-C8] (Octanoyl-FWRRFWRR-NH2)", "erythrocyte membranes", 3.6]
]}

* * *

Test system: erythrocyte membranes
RUN_DESCRIPTION: Hemolysis in whole blood (Kahn method)
Type: cell-based, human
Peptide text beside a SMILES is read from it. * marks the point of attachment. Myristoyl = CCCCCCCCCCCCCC(=O)*; Lauroyl = CCCCCCCCCCCC(=O)*; Decanoyl = CCCCCCCCCC(=O)*; Octanoyl = CCCCCCCC(=O)*

{"columns": ["COMPOUND", "TESTED_SYSTEM", "Free Hemoglobin, BLOOD, 128 μg/mL, mg/dL"],
 "data": [
  ["CCCCCCCCCCCCCC(=O)N1CCC[C@H]1C(=O)N[C@@H](Cc1ccccc1)C(=O)N[C@@H](Cc1c[nH]c2ccccc12)C(=O)N[C@@H](CCCNC(=N)N)C(=O)N[C@H](C(=O)N[C@@H](CCCNC(=N)N)C(=O)N[C@H](C(=O)N[C@@H](CCCNC(=N)N)C(=O)N[C@@H](CCCNC(=N)N)C(N)=O)[C@@H](C)CC)[C@@H](C)CC [LF11-322-C14] (Myristoyl-PFWRIRIRR-NH2)", "erythrocyte membranes", 2.9],
  ["CCCCCCCCCC(=O)N[C@@H](Cc1ccccc1)C(=O)N[C@@H](Cc1c[nH]c2ccccc12)C(=O)N[C@@H](CCCNC(=N)N)C(=O)N[C@@H](CCCNC(=N)N)C(=O)N[C@@H](Cc1ccccc1)C(=O)N[C@@H](Cc1c[nH]c2ccccc12)C(=O)N[C@@H](CCCNC(=N)N)C(=O)N[C@@H](CCCNC(=N)N)C(N)=O [LF11-227-C10] (Decanoyl-FWRRFWRR-NH2)", "erythrocyte membranes", 2.7],
  ["CCCCCCCC(=O)N[C@@H](Cc1ccccc1)C(=O)N[C@@H](Cc1c[nH]c2ccccc12)C(=O)N[C@@H](CCCNC(=N)N)C(=O)N[C@@H](CCCNC(=N)N)C(=O)N[C@@H](Cc1ccccc1)C(=O)N[C@@H](Cc1c[nH]c2ccccc12)C(=O)N[C@@H](CCCNC(=N)N)C(=O)N[C@@H](CCCNC(=N)N)C(N)=O [LF11-227-C8] (Octanoyl-FWRRFWRR-NH2)", "erythrocyte membranes", 2.3],
  ["CCCCCCCCCCCC(=O)N[C@@H](Cc1ccccc1)C(=O)N[C@@H](Cc1c[nH]c2ccccc12)C(=O)N[C@@H](CCCNC(=N)N)C(=O)N[C@@H](CCCNC(=N)N)C(=O)N[C@@H](Cc1ccccc1)C(=O)N[C@@H](Cc1c[nH]c2ccccc12)C(=O)N[C@@H](CCCNC(=N)N)C(=O)N[C@@H](CCCNC(=N)N)C(N)=O [LF11-227-C12] (Lauroyl-FWRRFWRR-NH2)", "erythrocyte membranes", 2.5],
  ["CCCCCCCCCCCCCC(=O)N[C@@H](Cc1ccccc1)C(=O)N[C@@H](Cc1c[nH]c2ccccc12)C(=O)N[C@@H](CCCNC(=N)N)C(=O)N[C@@H](CCCNC(=N)N)C(=O)N[C@@H](Cc1ccccc1)C(=O)N[C@@H](Cc1c[nH]c2ccccc12)C(=O)N[C@@H](CCCNC(=N)N)C(=O)N[C@@H](CCCNC(=N)N)C(N)=O [LF11-227-C14] (Myristoyl-FWRRFWRR-NH2)", "erythrocyte membranes", 2.6],
  ["CCCCCCCCCC(=O)N1CCC[C@H]1C(=O)N[C@@H](Cc1ccccc1)C(=O)N[C@@H](Cc1c[nH]c2ccccc12)C(=O)N[C@@H](CCCNC(=N)N)C(=O)N[C@H](C(=O)N[C@@H](CCCNC(=N)N)C(=O)N[C@H](C(=O)N[C@@H](CCCNC(=N)N)C(=O)N[C@@H](CCCNC(=N)N)C(N)=O)[C@@H](C)CC)[C@@H](C)CC [LF11-322-C10] (Decanoyl-PFWRIRIRR-NH2)", "erythrocyte membranes", 3.0],
  ["CCCCCCCC(=O)N1CCC[C@H]1C(=O)N[C@@H](Cc1ccccc1)C(=O)N[C@@H](Cc1c[nH]c2ccccc12)C(=O)N[C@@H](CCCNC(=N)N)C(=O)N[C@H](C(=O)N[C@@H](CCCNC(=N)N)C(=O)N[C@H](C(=O)N[C@@H](CCCNC(=N)N)C(=O)N[C@@H](CCCNC(=N)N)C(N)=O)[C@@H](C)CC)[C@@H](C)CC [LF11-322-C8] (Octanoyl-PFWRIRIRR-NH2)", "erythrocyte membranes", 2.7]
]}

* * *

System: E. coli (ATCC 11303)
RUN_DESCRIPTION: microbe, parasite or virus in culture
Format: cell-based
TEST_PARAMETERS: ATCC 11303, pH 7.4
Peptide text beside a SMILES is read from it. * marks the point of attachment. Lauroyl = CCCCCCCCCCCC(=O)*; Octanoyl = CCCCCCCC(=O)*
PROPERTY: Minimal Inhibitory Concentration, E. coli, PBS

{"columns": ["COMPOUND", "REPORTED_RESULT"],
 "data": [
  ["CCCCCCCC(=O)N[C@@H](Cc1ccccc1)C(=O)N[C@@H](Cc1c[nH]c2ccccc12)C(=O)N[C@@H](CCCNC(=N)N)C(=O)N[C@@H](CCCNC(=N)N)C(=O)N[C@@H](Cc1ccccc1)C(=O)N[C@@H](Cc1c[nH]c2ccccc12)C(=O)N[C@@H](CCCNC(=N)N)C(=O)N[C@@H](CCCNC(=N)N)C(N)=O [LF11-227-C8] (Octanoyl-FWRRFWRR-NH2)", "> 128 µg/mL"],
  ["CCCCCCCCCCCC(=O)N[C@@H](Cc1ccccc1)C(=O)N[C@@H](Cc1c[nH]c2ccccc12)C(=O)N[C@@H](CCCNC(=N)N)C(=O)N[C@@H](CCCNC(=N)N)C(=O)N[C@@H](Cc1ccccc1)C(=O)N[C@@H](Cc1c[nH]c2ccccc12)C(=O)N[C@@H](CCCNC(=N)N)C(=O)N[C@@H](CCCNC(=N)N)C(N)=O [LF11-227-C12] (Lauroyl-FWRRFWRR-NH2)", "> 128 µg/mL"],
  ["CCCCCCCC(=O)N1CCC[C@H]1C(=O)N[C@@H](Cc1ccccc1)C(=O)N[C@@H](Cc1c[nH]c2ccccc12)C(=O)N[C@@H](CCCNC(=N)N)C(=O)N[C@H](C(=O)N[C@@H](CCCNC(=N)N)C(=O)N[C@H](C(=O)N[C@@H](CCCNC(=N)N)C(=O)N[C@@H](CCCNC(=N)N)C(N)=O)[C@@H](C)CC)[C@@H](C)CC [LF11-322-C8] (Octanoyl-PFWRIRIRR-NH2)", "8 µg/mL"]
]}
